Values compiled from ChEMBL document CHEMBL5032502.

Test: AUC (0 to t) in Sprague-Dawley rat at 2 mg/kg, iv measured upto 24 hrs by LC-MS analysis
Format: ADME, organism-based
Parameters: route intravenous, dose 2 mg/kg, time <=24
Conditions: in vivo
reported.property: AUC(0-t) at 24 h (ng·h/mL)
One number for each entry, in ng·h/mL.

Query string: State the recorded AUC(0-t) at 24 h for this entry: "O=C(O)[C@@H](CO)NCc1cc(Cl)c(OCc2cccc(-c3ccccc3)c2Br)cc1OCc1ccc2nonc2c1"
Result string: 860

###

Assay: Clearance in C57BL/6 mouse at 2 mg/kg, iv measured upto 24 hrs by LC-MS analysis
Format: ADME, organism-based
Conditions: in vivo
reported.property: clearance
Put down the number, then write its unit next to it.

Query string: State the recorded clearance for this entry: "CCOC(=O)[C@@H](CO)NCc1cc(Cl)c(OCc2cccc(-c3ccccc3)c2Br)cc1OCc1ccc2nonc2c1.Cl"
Result string: 28.7 mL/min/kg

###

Assay: Tmax in Sprague-Dawley rat at 2 mg/kg, iv measured upto 24 hrs by LC-MS analysis
Type: ADME, organism-based
Conditions: in vivo
reported.property: Tmax (min)
Numbers only, in min.

Query string: State the recorded Tmax for this entry: "O=C(O)[C@@H](CO)NCc1cc(Cl)c(OCc2cccc(-c3ccccc3)c2Br)cc1OCc1ccc2nonc2c1"
Result string: 4.8

###

Assay: Cmax in Sprague-Dawley rat at 45 mg/kg, po measured upto 24 hrs by LC-MS analysis
Type: ADME, organism-based
Parameters: route oral, dose 45 mg/kg, time <=24
Details: in vivo
reported.property: Cmax

Query string: State the recorded Cmax for this entry: "CCOC(=O)[C@@H](CO)NCc1cc(Cl)c(OCc2cccc(-c3ccccc3)c2Br)cc1OCc1ccc2nonc2c1.Cl"
Result string: 488 ng/mL

###

Test: Cmax in Sprague-Dawley rat at 9 mg/kg, iv measured upto 24 hrs by LC-MS analysis
Format: ADME, organism-based
Design: route intravenous, dose 9 mg/kg, time <=24
Conditions: in vivo
reported.property: Cmax (ng/mL)
Numbers only, in ng/mL.

Query string: State the recorded Cmax for this entry: "CCOC(=O)[C@@H](CO)NCc1cc(Cl)c(OCc2cccc(-c3ccccc3)c2Br)cc1OCc1ccc2nonc2c1.Cl"
Result string: 13000

###

Target: Voltage-gated inwardly rectifying potassium channel KCNH2 (Homo sapiens)
Sequence (Q12809 whole entry): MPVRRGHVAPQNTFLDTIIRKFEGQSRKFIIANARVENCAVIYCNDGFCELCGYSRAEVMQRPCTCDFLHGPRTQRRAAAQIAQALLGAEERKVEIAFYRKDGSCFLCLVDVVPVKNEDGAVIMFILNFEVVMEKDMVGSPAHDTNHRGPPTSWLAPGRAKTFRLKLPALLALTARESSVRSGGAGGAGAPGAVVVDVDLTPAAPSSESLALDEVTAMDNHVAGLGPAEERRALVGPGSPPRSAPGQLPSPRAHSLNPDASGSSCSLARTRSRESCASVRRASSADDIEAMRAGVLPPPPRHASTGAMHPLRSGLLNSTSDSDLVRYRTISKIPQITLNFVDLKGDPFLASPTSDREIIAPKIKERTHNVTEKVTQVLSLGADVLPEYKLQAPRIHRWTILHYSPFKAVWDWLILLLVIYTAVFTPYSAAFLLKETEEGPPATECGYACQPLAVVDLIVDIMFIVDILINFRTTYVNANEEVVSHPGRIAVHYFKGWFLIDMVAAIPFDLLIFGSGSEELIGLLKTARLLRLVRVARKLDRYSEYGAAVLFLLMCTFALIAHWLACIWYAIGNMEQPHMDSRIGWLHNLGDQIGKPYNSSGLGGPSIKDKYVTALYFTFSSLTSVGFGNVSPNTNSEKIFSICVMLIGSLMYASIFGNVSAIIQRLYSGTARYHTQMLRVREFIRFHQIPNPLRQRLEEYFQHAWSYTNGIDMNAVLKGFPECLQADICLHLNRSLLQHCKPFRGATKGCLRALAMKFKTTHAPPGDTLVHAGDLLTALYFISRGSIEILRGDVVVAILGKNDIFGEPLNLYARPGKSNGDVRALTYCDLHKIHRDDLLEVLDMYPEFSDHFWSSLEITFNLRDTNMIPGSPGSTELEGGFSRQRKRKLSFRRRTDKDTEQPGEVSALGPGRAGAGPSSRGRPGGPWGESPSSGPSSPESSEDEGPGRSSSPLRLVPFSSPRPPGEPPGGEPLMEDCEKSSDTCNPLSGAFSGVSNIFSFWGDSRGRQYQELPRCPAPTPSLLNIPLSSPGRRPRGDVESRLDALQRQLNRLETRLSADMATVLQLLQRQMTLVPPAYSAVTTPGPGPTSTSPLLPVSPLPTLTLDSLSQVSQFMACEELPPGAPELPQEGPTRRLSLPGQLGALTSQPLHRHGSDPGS
reported.property: IC50

Query string: State the recorded IC50 for this entry: "O=C(O)[C@@H](CO)NCc1cc(Cl)c(OCc2cccc(-c3ccccc3)c2Br)cc1OCc1ccc2nonc2c1"
Result string: > 30 µM

###

Molecular target: Programmed cell death protein 1/Programmed cell death 1 ligand 1 (Homo sapiens, UniProt Q9NZQ7)
Sequence (Q15116 whole entry): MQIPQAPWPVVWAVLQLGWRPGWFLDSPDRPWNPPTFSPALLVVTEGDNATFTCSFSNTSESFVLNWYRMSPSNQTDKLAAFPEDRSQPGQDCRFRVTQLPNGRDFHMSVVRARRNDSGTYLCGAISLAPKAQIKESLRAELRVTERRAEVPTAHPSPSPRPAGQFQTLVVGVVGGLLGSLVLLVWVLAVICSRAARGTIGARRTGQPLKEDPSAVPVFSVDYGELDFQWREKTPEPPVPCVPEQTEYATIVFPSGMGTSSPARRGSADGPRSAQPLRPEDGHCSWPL
Sequence (Q9NZQ7 whole entry): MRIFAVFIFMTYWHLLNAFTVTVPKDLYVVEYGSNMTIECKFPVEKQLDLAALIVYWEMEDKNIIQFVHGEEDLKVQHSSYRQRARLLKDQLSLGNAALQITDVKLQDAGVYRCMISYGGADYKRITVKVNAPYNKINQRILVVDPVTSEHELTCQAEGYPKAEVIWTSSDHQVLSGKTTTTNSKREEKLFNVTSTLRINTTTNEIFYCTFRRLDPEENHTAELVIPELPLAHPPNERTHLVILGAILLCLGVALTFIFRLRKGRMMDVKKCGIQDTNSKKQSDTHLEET
Assay: Inhibition of human PD-1/PD-L1 interaction assessed as blockade activity incubated for 15 mins by HTRF assay
Assign pIC50 to each entry below.
Numbers only, as −log10 of the molar value.

// solved cases for pIC50 follow
>>> numeric_readout("OC1CCN(Cc2cc(Cl)c(OCc3cccc(-c4ccccc4)c3Br)cc2OCc2ccc3nonc3c2)CC1")
5.98
>>> numeric_readout("O=S(=O)(O)CCNCc1cc(Cl)c(OCc2cccc(-c3ccccc3)c2Br)cc1OCc1ccc2nonc2c1")
7.57

Take each entry in turn and give its pIC50.
1. Cc1c(COc2ccc(CN[C@H](CO)C(=O)O)c(OCc3cccc4nonc34)c2)cccc1-c1ccccc1
2. Cc1c(COc2ccc(CN[C@H](CO)C(=O)O)c(OCc3ccc4nsnc4c3)c2)cccc1-c1ccccc1
3. Cc1c(COc2ccc(CN[C@H](CO)C(=O)O)c(OCc3ccc4nonc4c3)c2)cccc1-c1ccccc1
4. CCOC(=O)[C@@H](CO)NCc1cc(Cl)c(OCc2cccc(-c3ccccc3)c2Br)cc1OCc1ccc2nonc2c1.Cl
5. Cc1c(COc2ccc(CN[C@H](CO)C(=O)O)c(OCc3ccc4ccoc4c3)c2)cccc1-c1ccccc1
6. CC(C)(C)OC[C@@H](NCc1cc(Cl)c(OCc2cccc(-c3ccccc3)c2Cl)cc1OCc1ccc2nonc2c1)C(=O)N[C@H](CO)C(=O)O

Result string:
1. 5.67
2. 6.69
3. 7.47
4. 6.37
5. 5.63
6. 6.41

Take each entry in turn and give its pIC50.
1. OCCNCc1cc(Cl)c(OCc2cccc(-c3ccccc3)c2Br)cc1OCc1ccc2nonc2c1
2. O=C(O)CNCc1cc(Cl)c(OCc2cccc(-c3ccccc3)c2Br)cc1OCc1ccc2nonc2c1

Result string:
1: 7.51; 2: 7.47

Take each entry in turn and give its pIC50.
1. OC[C@H](O)CNCc1cc(Cl)c(OCc2cccc(-c3ccccc3)c2Br)cc1OCc1ccc2nonc2c1
2. O=C(O)[C@@H](CO)NCc1cc(Cl)c(OCc2cccc(-c3cccc(F)c3)c2Cl)cc1OCc1ccc2nonc2c1
3. O=C(O)[C@H]1C[C@@H](O)CN1Cc1cc(Cl)c(OCc2cccc(-c3ccccc3)c2Br)cc1OCc1ccc2nonc2c1

Result string:
1: 7.84; 2: 8.19; 3: 7.61

Take each entry in turn and give its pIC50.
1. O=C(O)[C@@H](CO)NCc1ccc(OCc2cccc(-c3ccccc3)c2C(F)(F)F)cc1OCc1ccc2nonc2c1
2. OC[C@@H](O)CNCc1cc(Cl)c(OCc2cccc(-c3ccccc3)c2Br)cc1OCc1ccc2nonc2c1
3. O=C(O)C1CN(Cc2cc(Cl)c(OCc3cccc(-c4ccccc4)c3Br)cc2OCc2ccc3nonc3c2)C1

Result string:
1: 5.86; 2: 7.80; 3: 7.28

###

Assay: AUC (0 to t) in Sprague-Dawley rat at 45 mg/kg, po measured upto 24 hrs by LC-MS analysis
Format: ADME, organism-based
Set-up: route oral, dose 45 mg/kg, time <=24
Settings: in vivo
reported.property: AUC(0-t) at 24 h (ng·h/mL)
Numbers only, in ng·h/mL.

Query string: State the recorded AUC(0-t) at 24 h for this entry: "CCOC(=O)[C@@H](CO)NCc1cc(Cl)c(OCc2cccc(-c3ccccc3)c2Br)cc1OCc1ccc2nonc2c1.Cl"
Result string: 2860

###

Target: Programmed cell death protein 1/Programmed cell death 1 ligand 1 (Homo sapiens, UniProt Q9NZQ7)
Experiment: Inhibition of human PD-1/PD-L1 interaction assessed as blockade activity incubated for 15 mins by HTRF assay
Assign pIC50 to each entry below.
Numbers only, as −log10 of the molar value.

>>> numeric_readout("O=C(O)[C@@H](CO)NCc1cc(Cl)c(OCc2cccc(-c3ccc(F)cc3)c2Cl)cc1OCc1ccc2nonc2c1")
7.25
>>> numeric_readout("O=C(O)[C@@H](CO)NCc1cc(Cl)c(OCc2cccc(-c3cccc(F)c3F)c2Cl)cc1OCc1ccc2nonc2c1")
6.79
>>> numeric_readout("O=C(O)[C@@H](CO)NCc1cc(F)c(OCc2cccc(-c3ccccc3)c2Cl)cc1OCc1ccc2nonc2c1")
8.02

# next compound below
Query string: State the recorded pIC50 for this entry: "NS(=O)(=O)CCNCc1cc(Cl)c(OCc2cccc(-c3ccccc3)c2Br)cc1OCc1ccc2nonc2c1"
Result string: 6.47

###

Test: Oral bioavailability in C57BL/6 mouse at 10 mg/kg measured upto 24 hrs by LC-MS analysis
Assay type: ADME, organism-based
Conditions: in vivo
reported.property: bioavailability (%)
Answers are plain numbers, in %.

Query string: State the recorded bioavailability for this entry: "CCOC(=O)[C@@H](CO)NCc1cc(Cl)c(OCc2cccc(-c3ccccc3)c2Br)cc1OCc1ccc2nonc2c1.Cl"
Result string: 7.7

###

Experiment: Half life in C57BL/6 mouse at 2 mg/kg, iv measured upto 24 hrs by LC-MS analysis
Assay type: ADME, organism-based
Conditions: in vivo
reported.property: half-life (h)
Numbers only, in h.

Query string: State the recorded half-life for this entry: "CCOC(=O)[C@@H](CO)NCc1cc(Cl)c(OCc2cccc(-c3ccccc3)c2Br)cc1OCc1ccc2nonc2c1.Cl"
Result string: 2.05

###

Test: AUC (0 to t) in Sprague-Dawley rat at 10 mg/kg, po measured upto 24 hrs by LC-MS analysis
Format: ADME, organism-based
Set-up: route oral, dose 10 mg/kg, time <=24
Settings: in vivo
reported.property: AUC(0-t) at 24 h (ng·h/mL)
Give bare numbers, in ng·h/mL.

Query string: State the recorded AUC(0-t) at 24 h for this entry: "O=C(O)[C@@H](CO)NCc1cc(Cl)c(OCc2cccc(-c3ccccc3)c2Br)cc1OCc1ccc2nonc2c1"
Result string: 15.2

###

Assay: Half life in Sprague-Dawley rat at 9 mg/kg, iv measured upto 24 hrs by LC-MS analysis
Type: ADME, organism-based
Conditions: in vivo
reported.property: half-life (h)
Answers are plain numbers, in h.

Query string: State the recorded half-life for this entry: "CCOC(=O)[C@@H](CO)NCc1cc(Cl)c(OCc2cccc(-c3ccccc3)c2Br)cc1OCc1ccc2nonc2c1.Cl"
Result string: 5.02

###

Assay: Cmax in C57BL/6 mouse at 2 mg/kg, iv measured upto 24 hrs by LC-MS analysis
Assay type: ADME, organism-based
Set-up: route intravenous, dose 2 mg/kg, time <=24
Details: in vivo
reported.property: Cmax (ng/mL)
Give bare numbers, in ng/mL.

Query string: State the recorded Cmax for this entry: "CCOC(=O)[C@@H](CO)NCc1cc(Cl)c(OCc2cccc(-c3ccccc3)c2Br)cc1OCc1ccc2nonc2c1.Cl"
Result string: 2820
